target.under.test: Cannabinoid receptor 2 (Homo sapiens)
Sequence (P34972 whole entry): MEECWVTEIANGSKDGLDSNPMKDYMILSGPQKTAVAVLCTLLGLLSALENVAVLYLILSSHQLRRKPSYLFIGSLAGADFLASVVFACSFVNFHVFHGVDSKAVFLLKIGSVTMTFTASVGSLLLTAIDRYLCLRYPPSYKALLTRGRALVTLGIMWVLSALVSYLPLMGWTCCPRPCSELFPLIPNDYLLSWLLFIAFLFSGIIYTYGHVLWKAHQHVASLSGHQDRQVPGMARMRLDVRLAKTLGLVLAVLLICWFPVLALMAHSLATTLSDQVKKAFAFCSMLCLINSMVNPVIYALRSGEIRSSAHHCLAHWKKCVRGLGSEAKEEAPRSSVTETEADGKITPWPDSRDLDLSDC
assay.metric: Ki (nM)
Answers are plain numbers, in nM.

Below are worked cases with known answers.
CC1=CCC2C(C1)c1c(O)cc(CCCCC(F)(F)F)cc1OC2(C)C (stereo not given): 30
CCCCCn1ccc(C(=O)c2cccc3ccccc23)c1: 320
CCCCC/C=C\C/C=C\C/C=C\C/C=C\CCC(C)C(=O)NCCF (stereo not given): 130
CCCCC/C=C\C/C=C\C/C=C\C/C=C\CCCC(=O)NCCF: 320
CCCCC/C=C\C/C=C\C/C=C\C/C=C\CCCC(=O)NCCOC: 450
CC1=CCC2C(C1)c1c(O)cc(CCCCCF)cc1OC2(C)C (stereo not given): 8.7

State the recorded Ki for every item in the following list.
1. CCCCC/C=C\C/C=C\C/C=C\C/C=C\CCCC(=O)N1CCOCC1
2. CCCCCn1c(C)c(C(=O)c2cccc3ccccc23)c2ccccc21
3. CCCCCc1cc(O)c2c(c1)OC(C)(C)c1ccc(C)cc1-2
4. CCCCC/C=C\C/C=C\C/C=C\C/C=C\CCC(C(=O)NCCO)C(C)C (stereo not given)

1: 540; 2: 3; 3: 95; 4: 5100

Ref: BindingDB's records for doi:10.1021/jm991074s
